molecular target: human kappa opioid receptors (Homo sapiens); construct: expressed in transfected cells; host or cells: U2OS; assay: [35S]GTPγS binding, membranes from U2OS cells; format: biochemical; settings: read-out: GTPγS (% efficacy)
Sequence (P41145 whole entry): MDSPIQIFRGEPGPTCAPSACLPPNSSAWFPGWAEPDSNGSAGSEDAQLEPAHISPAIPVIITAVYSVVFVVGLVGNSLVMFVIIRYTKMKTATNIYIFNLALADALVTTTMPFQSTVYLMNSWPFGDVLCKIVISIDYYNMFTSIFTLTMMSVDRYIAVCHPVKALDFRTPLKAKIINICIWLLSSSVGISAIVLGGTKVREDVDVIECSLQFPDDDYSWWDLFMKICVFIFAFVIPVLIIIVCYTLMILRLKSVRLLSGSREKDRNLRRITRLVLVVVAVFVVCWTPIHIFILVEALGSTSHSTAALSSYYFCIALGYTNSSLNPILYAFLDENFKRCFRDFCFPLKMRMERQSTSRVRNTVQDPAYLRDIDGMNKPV
measure: Emax (%)
Response body: numeric value in %, unit text excluded.

Please review the entries below; each comes with its answer.
O=C(CN1CCN(C(=O)Cc2ccc(Cl)c(Cl)c2)[C@H]2[C@H]1COC[C@@H]2N1CCCC1)N1CCCC1 (racemic)	92
O=C(Cc1ccc(Cl)c(Cl)c1)N1CCN(CCCO)[C@@H]2COC[C@H](N3CCCC3)[C@H]21 (racemic)	89
COCCS(=O)(=O)N1CCN(C(=O)Cc2ccc(Cl)c(Cl)c2)[C@H]2[C@H]1COC[C@@H]2N1CCCC1 (single isomer, unassigned) [Example 5A146A]	91

Incoming: Supply measured Emax of Cc1nnc(CN2CCN(C(=O)Cc3ccc(Cl)c(Cl)c3)[C@H]3[C@H]2COC[C@@H]3N2CCCC2)o1 (racemic) in your reply.
Outgoing: 91
